# Subject Of Test: CREBBP bromodomain (His-CREBBP(1081-1197)) (Homo sapiens (Human), UniProt Q92793)
# Sequence (Q92793 1081-1197): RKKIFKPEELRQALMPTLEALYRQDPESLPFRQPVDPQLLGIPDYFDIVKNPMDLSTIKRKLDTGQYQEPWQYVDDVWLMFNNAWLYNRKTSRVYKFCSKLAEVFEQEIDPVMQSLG
# Method Description: AlphaScreen in-vitro binding assay for CREBBP
# Measurement Parameters: single determination or n ≧ 2 independent determinations, read-out: Biochemical IC50 CREBBP
Please go through the items and note down their IC50.

Complete the entry with IC50 for COc1ccc(-c2nc3c(n2C(C)C)C(c2ccc(Cl)cc2)N(c2cc(C)c4nnc(C(F)F)n4n2)C3=O)cn1 (centres unmarked) > 37 µM

Item COc1cc(N2C(=O)c3nc(C4CC4)n(C)c3C2c2ccc(Cl)cc2)cn2c(C)nnc12 (centres unmarked) : provide IC50 > 37 µM

Entry CCn1c(-c2ccnn2C)nc2c1C(=O)N(c1cc(C)c(=O)n(C)c1)C2c1ccc(Cl)cc1 (centres unmarked) needs its IC50 filled in; supply it. 3.4 µM

Determine from records and report IC50 for Cc1cc(N2C(=O)c3nc(C4CCN(C)CC4)n(C(C)C)c3C2c2ccc(Cl)cc2)nn2c(C)nnc12 (centres unmarked) > 37 µM

Please report IC50 for the following compound: COc1ccc(-c2nc3c(n2C)C(c2ccc(Cl)cc2)N(c2cc(OC)c4nnc(C)n4c2)C3=O)cn1 (centres unmarked) > 37 µM
